The origin of these recorded values is the OligoGym collection.

# System: PCK2
# Conditions: ASO; also: test concentration or dose not given here
These antisense oligonucleotides have a phosphorothioate backbone; sugars and methylation of C are not fully specified.
Lab note: compare remaining target (mRNA or protein) (fraction of control) with 0.8, writing 1.0 if less and 0.0 if equal or more.

Exam item: Would you kindly verify if remaining target (mRNA or protein) (fraction of control) of `AAGATGTTAGTTAATATCAA` is strictly less than 0.8?
Marked response: 0.0

Exam item: Lab note: confirm whether the reported remaining target (mRNA or protein) (fraction of control) for this sequence is below 0.8, equality not counting. sequence: `AGGAACCGAGCGGAGCCGGG`
Marked response: 1.0

Exam item: Report whether reported remaining target (mRNA or protein) (fraction of control) is lower than 0.8 (strictly) for `CCGGGCCAGCCGAGAGGCGA`
Marked response: 0.0

Exam item: Decide: remaining target (mRNA or protein) (fraction of control) of `TCGGATGAGGCCCTGCTGCT` strictly below 0.8?
Marked response: 0.0

Exam item: In plain terms, does `GCTACGGCATGATGGCCAGC` come in under 0.8 for remaining target (mRNA or protein) (fraction of control)?
Marked response: 0.0

Exam item: Determine if `TCACATTTTGTGCACACGTC` shows remaining target (mRNA or protein) (fraction of control) strictly lower than 0.8.
Marked response: 1.0

Exam item: hey, is remaining target (mRNA or protein) (fraction of control) for `GGCCCGGAGTCGACCTTCAC` lower than 0.8 or not?
Marked response: 1.0

Exam item: Could you please tell me whether remaining target (mRNA or protein) (fraction of control) recorded for `TCCAGCCTGGCAGTGCAGGC` is less than 0.8?
Marked response: 1.0

Exam item: Please state whether remaining target (mRNA or protein) (fraction of control) is below 0.8 for `CCAGTCGGGTCATAATACGC`
Marked response: 1.0

Exam item: Please determine if `TCACGCCGGAACCAGTTGAC` is below 0.8 in terms of remaining target (mRNA or protein) (fraction of control).
Marked response: 0.0

Exam item: Identify whether the sequence `TGATCTCCCGCTGGTCGGGC` records remaining target (mRNA or protein) (fraction of control) below 0.8.
Marked response: 1.0

###

# System: NCOA2
# Conditions: ASO
These antisense oligonucleotides have a phosphorothioate backbone; sugars and methylation of C are not fully specified.
Under this convention, rule met denotes remaining target (mRNA or protein) (fraction of control) strictly below 0.4 and rule not met denotes remaining target (mRNA or protein) (fraction of control) at or above 0.4.

Study these solved cases before continuing.
>  <Sequence Content>
GAGAGACAGCGAAGCACT

>  <Answer Label>
rule met

$$$$
>  <Sequence Content>
TTTCTCCCATCCCACTCA

>  <Answer Label>
rule not met

$$$$
>  <Sequence Content>
TCTGCCCTTTGCTGTCAT

>  <Answer Label>
rule not met

$$$$
>  <Sequence Content>
AAGCCAACGATGACCCTA

>  <Answer Label>
rule met

$$$$
>  <Sequence Content>
ATCGGCTCGGGTCGGTCA

>  <Answer Label>
rule met

$$$$

Exam item: Strictly below 0.4: is that where remaining target (mRNA or protein) (fraction of control) of `GACGCCACCCTGGGAACC` sits?
Marked response: rule not met

Exam item: Criterion: remaining target (mRNA or protein) (fraction of control) strictly below 0.4. Is it met by `TGCACATTTGTCAGGTTT` ?
Marked response: rule met

Exam item: Decide: remaining target (mRNA or protein) (fraction of control) of `GCTGTGCTTGGAGGCGAT` strictly below 0.4?
Marked response: rule not met

Exam item: Take the sequence `CATTTACTATAGACTTTG` and say whether its remaining target (mRNA or protein) (fraction of control) is less than 0.4.
Marked response: rule not met

Exam item: For this sequence, is remaining target (mRNA or protein) (fraction of control) lower than 0.4? `TGCTGTGGGAAAACGGGC`
Marked response: rule not met

###

# System: PRKACA
# Conditions: ASO
These antisense oligonucleotides have a phosphorothioate backbone; sugars and methylation of C are not fully specified.
Test Readout: remaining target (mRNA or protein) (fraction of control)

Solved entries (count: 2):
>  <Sequence Content>
GCGGCCCTTCACGCGCTTGG

>  <Reported Result>
≥ 1

$$$$
>  <Sequence Content>
TCTGCGAAGAAGGGCGGGTA

>  <Reported Result>
≥ 1

$$$$

# next sequence below
Exam item: // returns reported remaining target (mRNA or protein) (fraction of control) for input `GTTGTCCTTGAAGGAGAACT`
Marked response: ≥ 1

###

# System: GNAS
# Conditions: ASO
These antisense oligonucleotides have a phosphorothioate backbone; sugars and methylation of C are not fully specified.
Test Readout: remaining target (mRNA or protein) (fraction of control)

Exam item: Which value of remaining target (mRNA or protein) (fraction of control) has been reported for `CACGGCGGATGTTCTCAGTG` in the records?
Marked response: 0.44

Exam item: Item `TTATTTCATTTTATTTGTTT` has what recorded remaining target (mRNA or protein) (fraction of control)?
Marked response: 0.92

Exam item: Recorded remaining target (mRNA or protein) (fraction of control) for `TATTTATTTCATTTGTTTCT` , please?
Marked response: ≥ 1

Exam item: Any idea what its remaining target (mRNA or protein) (fraction of control) is? The sequence is `GATGTTCTCAGTGTCCACAG`
Marked response: 0.45

Exam item: I would be grateful if you could share the reported remaining target (mRNA or protein) (fraction of control) for `TGCGCTGAATGATGTCACGG` .
Marked response: 0.41

###

# System: RHOB
# Conditions: ASO
These antisense oligonucleotides have a phosphorothioate backbone; sugars and methylation of C are not fully specified.
Test Readout: remaining target (mRNA or protein) (fraction of control)

Answered cases to consult:
>  <Sequence Content>
CTCGAAGACCTCGCGCAC

>  <Reported Result>
≥ 1

$$$$
>  <Sequence Content>
TTACTGAACACGATCAGC

>  <Reported Result>
≥ 1

$$$$

Exam item: Name the recorded remaining target (mRNA or protein) (fraction of control) for `CCACCACCAGCTTCTTGC` .
Marked response: ≥ 1

###

Entries and their remaining target (mRNA or protein) (fraction of control)
# System: AKT2
# Conditions: ASO
These antisense oligonucleotides have a phosphorothioate backbone; sugars and methylation of C are not fully specified.
Lab note: record just the number, no unit beside it.

// solved cases for remaining target (mRNA or protein) (fraction of control) follow
>  <Sequence Content>
GTCTTGATGTATTCACCA

>  <System>
AKT2

>  <Reported Result>
0.52

$$$$
>  <Sequence Content>
CCCGCTCCTCTGTGAAGA

>  <System>
AKT2

>  <Reported Result>
0.08

$$$$
>  <Sequence Content>
ATGATGACTTCCTTTCGC

>  <System>
AKT2

>  <Reported Result>
0.43

$$$$
>  <Sequence Content>
TGGCATTCTGCTACGGAG

>  <System>
AKT2

>  <Reported Result>
0.18

$$$$
>  <Sequence Content>
CCGCTGCTTGAGGCTGTT

>  <System>
AKT2

>  <Reported Result>
0.29

$$$$

Turning to the following sequence.
Exam item: Given the entry `AGTTGATGCTGAGGAAGA` , report its measured remaining target (mRNA or protein) (fraction of control).
Marked response: 0.51

###

# System: RHOG
# Conditions: ASO
These antisense oligonucleotides have a phosphorothioate backbone; sugars and methylation of C are not fully specified.
Consider the following sequences and their measured remaining target (mRNA or protein) (fraction of control) readings.
Format: numeric value only, no unit, no commentary.

Use the examples below as a reference point.
>  <Sequence Content>
GTCCCACAGGTTCAGGTT

>  <Reported Result>
0.69

$$$$
>  <Sequence Content>
GAACACTTCCTTGACACC

>  <Reported Result>
0.69

$$$$

Turning now to a further record.
Exam item: Query: remaining target (mRNA or protein) (fraction of control); subject: `ACCACAATAGGCAGCAAC`
Marked response: 0.69

###

Catalogue of remaining target (mRNA or protein) (fraction of control) readings, one per entry.
# System: SRA1
# Conditions: ASO
These antisense oligonucleotides have a phosphorothioate backbone; sugars and methylation of C are not fully specified.

These solved cases illustrate the format of a correct answer.
>  <Sequence Content>
TTCTGCAATTAATCTTTT

>  <Reported Result>
0.59

$$$$
>  <Sequence Content>
CTTTTCTGCAATTAATCT

>  <Reported Result>
0.61

$$$$
>  <Sequence Content>
CGTCGGCTGATGTCATCA

>  <Reported Result>
0.61

$$$$

Exam item: Please look up its remaining target (mRNA or protein) (fraction of control): `GTATCTCAAGGGTGATAC`
Marked response: 0.6

Exam item: Value lookup for remaining target (mRNA or protein) (fraction of control); key = `CCATTCTCTTCTTTACAG`
Marked response: 0.6
